Quick reference for TERMINAL_BW among some compounds
species on record: Rattus norvegicus; experiment: Open TG-GATES - Regimen: Daily Repeat; format: toxicity, organism-based, Sprague-Dawley; set-up: regimen Daily Repeat, gender Male, age 6 weeks; details: in vivo, po, 0 mg/kg, […], route gavage, dose level Control, time 14 day

| compound | TERMINAL_BW / g |
| --- | --- |
| O=C(O)COc1nn(Cc2ccccc2)c2ccccc12 | 318.4 |
| CC(C)Cc1ccc(C(C)C(=O)O)cc1 (stereo not drawn) | 304.6 |
| CC(N)=O [ACETAMIDE] | 335.4 |
| CC(=O)Nc1ccc2c(c1)Cc1ccccc1-2 | 334.5 |
| CC[C@@H](CO)NCCN[C@@H](CC)CO | 330.7 |
| CC(CCc1ccccc1)NCC(O)c1ccc(O)c(C(N)=O)c1 (stereo not drawn) | 341.4 |
| CCN(CC)N=O | 325.9 |
| CC(=O)N1CCN(c2ccc(OCC3COC(Cn4ccnc4)(c4ccc(Cl)cc4Cl)O3)cc2)CC1 (stereo not drawn) | 301.1 |

----------
organism: Rattus norvegicus; test: Open TG-GATES - Regimen: Single; assay type: toxicity, organism-based, Sprague-Dawley; parameters: regimen Single, gender Male, age 6 weeks; settings: in vivo, po, 0 mg/kg, 24 h, tissue Blood, route gavage, dose level Control
Quick reference for MCV among some molecules

| molecule | MCV (fL) |
| --- | --- |
| CC(C)Cc1ccc(C(C)C(=O)O)cc1 (configuration not stated) [IBUPROFEN] | 63.5 |
| O=C(O)COc1nn(Cc2ccccc2)c2ccccc12 [BENDAZAC] | 65.2 |
| CC(=O)Nc1ccc2c(c1)Cc1ccccc1-2 [2-ACETYLAMINOFLUORENE] | 65.4 |
| CC[C@@H](CO)NCCN[C@@H](CC)CO [ETHAMBUTOL] | 64 |
| CC(=O)N1CCN(c2ccc(OCC3COC(Cn4ccnc4)(c4ccc(Cl)cc4Cl)O3)cc2)CC1 (configuration not stated) [KETOCONAZOLE] | 63.9 |
| CC(CCc1ccccc1)NCC(O)c1ccc(O)c(C(N)=O)c1 (configuration not stated) [LABETALOL] | 63.1 |
| CCN(CC)N=O [N-NITROSODIETHYLAMINE] | 63.2 |

----------
organism: Rattus norvegicus; test: Open TG-GATES - Regimen: Daily Repeat; type: toxicity, organism-based, Sprague-Dawley; design: regimen Daily Repeat, gender Male, age 6 weeks; conditions: in vivo, po, 0 mg/kg, […], tissue Liver, route gavage, dose level Control, time 7 day
Quick reference for LIVER among some compounds
property name: LIVER (g)

| compound | measurement units | observed value |
| --- | --- | --- |
| CC[C@@H](CO)NCCN[C@@H](CC)CO | g | 12.3 |
| CCN(CC)N=O | g | 12.4 |
| O=C(O)COc1nn(Cc2ccccc2)c2ccccc12 | g | 13.2 |
| CC(=O)N1CCN(c2ccc(OCC3COC(Cn4ccnc4)(c4ccc(Cl)cc4Cl)O3)cc2)CC1 (configuration not stated) | g | 12.2 |
| CC(N)=O [ACETAMIDE] | g | 12.8 |
| CC(=O)Nc1ccc2c(c1)Cc1ccccc1-2 | g | 12.4 |
| CC(CCc1ccccc1)NCC(O)c1ccc(O)c(C(N)=O)c1 (configuration not stated) | g | 13.1 |

----------
organism: Rattus norvegicus; test: Open TG-GATES - Regimen: Daily Repeat; assay type: toxicity, organism-based, Sprague-Dawley; set-up: regimen Daily Repeat, gender Male, age 6 weeks; conditions: in vivo, po, 0 mg/kg, […], tissue Plasma, route gavage, dose level Control, time 7 day
Quick reference for gamma-GTP among some compounds
property name: gamma-GTP (IU/L)

| compound | observed value |
| --- | --- |
| CC(CCc1ccccc1)NCC(O)c1ccc(O)c(C(N)=O)c1 (stereo not drawn) | 1 |
| CCN(CC)N=O | 1 |
| CC(=O)N1CCN(c2ccc(OCC3COC(Cn4ccnc4)(c4ccc(Cl)cc4Cl)O3)cc2)CC1 (stereo not drawn) | 1.2 |
| CC[C@@H](CO)NCCN[C@@H](CC)CO | 1.8 |
| CC(=O)Nc1ccc2c(c1)Cc1ccccc1-2 | 1.4 |
| CC(N)=O [ACETAMIDE] | 0.7 |
| O=C(O)COc1nn(Cc2ccccc2)c2ccccc12 | 1 |
| CC(C)Cc1ccc(C(C)C(=O)O)cc1 (stereo not drawn) | 2.6 |

----------
species on record: Rattus norvegicus; test: Open TG-GATES - Regimen: Single; assay type: toxicity, organism-based, Sprague-Dawley; design: regimen Single, gender Male, age 6 weeks; conditions: in vivo, po, 0 mg/kg, 3 h, tissue Blood, route gavage, dose level Control

| compound | Ht, % |
| --- | --- |
| CC(C)Cc1ccc(C(C)C(=O)O)cc1 (configuration not stated) | 38.4 |
| O=C(O)COc1nn(Cc2ccccc2)c2ccccc12 | 40.7 |
| CC(=O)Nc1ccc2c(c1)Cc1ccccc1-2 | 39.5 |
| CC(=O)N1CCN(c2ccc(OCC3COC(Cn4ccnc4)(c4ccc(Cl)cc4Cl)O3)cc2)CC1 (configuration not stated) | 38.4 |
| CC[C@@H](CO)NCCN[C@@H](CC)CO | 39.5 |
| CC(CCc1ccccc1)NCC(O)c1ccc(O)c(C(N)=O)c1 (configuration not stated) | 38.7 |
| CCN(CC)N=O | 40 |

----------
species on record: Rattus norvegicus; test: Open TG-GATES - Regimen: Single; format: toxicity, organism-based, Sprague-Dawley; set-up: regimen Single, gender Male, age 6 weeks; conditions: in vivo, po, 0 mg/kg, 24 h, tissue Plasma, route gavage, dose level Control
If the reported ALT equals or exceeds 40 IU/L, assign label 1. If not, assign label 0.

| compound | label |
| --- | --- |
| CC(CCc1ccccc1)NCC(O)c1ccc(O)c(C(N)=O)c1 (configuration not stated) [LABETALOL] | label 1 |
| CC(C)Cc1ccc(C(C)C(=O)O)cc1 (configuration not stated) [IBUPROFEN] | label 1 |
| CCN(CC)N=O [N-NITROSODIETHYLAMINE] | label 0 |
| CC(=O)N1CCN(c2ccc(OCC3COC(Cn4ccnc4)(c4ccc(Cl)cc4Cl)O3)cc2)CC1 (configuration not stated) [KETOCONAZOLE] | label 1 |
| CC[C@@H](CO)NCCN[C@@H](CC)CO [ETHAMBUTOL] | label 1 |

----------
species on record: Rattus norvegicus; assay: Open TG-GATES - Regimen: Single; type: toxicity, organism-based, Sprague-Dawley; set-up: regimen Single, gender Male, age 6 weeks; conditions: in vivo, po, 0 mg/kg, 9 h, tissue Plasma, route gavage, dose level Control
property name: RALB (g/dL)

| molecule | observed value |
| --- | --- |
| O=C(O)COc1nn(Cc2ccccc2)c2ccccc12 [BENDAZAC] | 3.7 |
| CC(=O)Nc1ccc2c(c1)Cc1ccccc1-2 [2-ACETYLAMINOFLUORENE] | 3.5 |
| CC(C)Cc1ccc(C(C)C(=O)O)cc1 (configuration not stated) [IBUPROFEN] | 2.9 |
| CCN(CC)N=O [N-NITROSODIETHYLAMINE] | 3.4 |
| CC[C@@H](CO)NCCN[C@@H](CC)CO [ETHAMBUTOL] | 3 |
| CC(=O)N1CCN(c2ccc(OCC3COC(Cn4ccnc4)(c4ccc(Cl)cc4Cl)O3)cc2)CC1 (configuration not stated) [KETOCONAZOLE] | 3.1 |
| CC(CCc1ccccc1)NCC(O)c1ccc(O)c(C(N)=O)c1 (configuration not stated) [LABETALOL] | 2.6 |

----------
Quick reference for Fbg among some compounds
organism: Rattus norvegicus; experiment: Open TG-GATES - Regimen: Single; type: toxicity, organism-based, Sprague-Dawley; design: regimen Single, gender Male, age 6 weeks; conditions: in vivo, po, 0 mg/kg, 3 h, tissue Blood, route gavage, dose level Control

| compound | Fbg [mg/dL] |
| --- | --- |
| CC[C@@H](CO)NCCN[C@@H](CC)CO | 319 |
| CC(C)Cc1ccc(C(C)C(=O)O)cc1 (configuration not stated) | 277 |
| CC(=O)Nc1ccc2c(c1)Cc1ccccc1-2 | 222.8 |
| CC(=O)N1CCN(c2ccc(OCC3COC(Cn4ccnc4)(c4ccc(Cl)cc4Cl)O3)cc2)CC1 (configuration not stated) | 282.4 |
| CC(CCc1ccccc1)NCC(O)c1ccc(O)c(C(N)=O)c1 (configuration not stated) | 279.6 |
| O=C(O)COc1nn(Cc2ccccc2)c2ccccc12 | 208.8 |
| CCN(CC)N=O | 223 |

----------
organism: Rattus norvegicus; assay: Open TG-GATES - Regimen: Single; assay type: toxicity, organism-based, Sprague-Dawley; design: regimen Single, gender Male, age 6 weeks; settings: in vivo, po, 0 mg/kg, 24 h, tissue Plasma, route gavage, dose level Control

| compound | Ca / mg/dL |
| --- | --- |
| CCN(CC)N=O | 10.5 |
| CC(=O)Nc1ccc2c(c1)Cc1ccccc1-2 | 10.8 |
| O=C(O)COc1nn(Cc2ccccc2)c2ccccc12 | 11 |
| CC[C@@H](CO)NCCN[C@@H](CC)CO | 10.6 |
| CC(=O)N1CCN(c2ccc(OCC3COC(Cn4ccnc4)(c4ccc(Cl)cc4Cl)O3)cc2)CC1 (stereo not given) | 10.7 |
